Field: Kd. Provide a value for each of the binders that follow.
Biological target: T1, EsCas13d, nuclease-dead (Eubacterium siraeum, UniProt B0MS50, R295A;H300A;R849A;H854A)
T1 sequence: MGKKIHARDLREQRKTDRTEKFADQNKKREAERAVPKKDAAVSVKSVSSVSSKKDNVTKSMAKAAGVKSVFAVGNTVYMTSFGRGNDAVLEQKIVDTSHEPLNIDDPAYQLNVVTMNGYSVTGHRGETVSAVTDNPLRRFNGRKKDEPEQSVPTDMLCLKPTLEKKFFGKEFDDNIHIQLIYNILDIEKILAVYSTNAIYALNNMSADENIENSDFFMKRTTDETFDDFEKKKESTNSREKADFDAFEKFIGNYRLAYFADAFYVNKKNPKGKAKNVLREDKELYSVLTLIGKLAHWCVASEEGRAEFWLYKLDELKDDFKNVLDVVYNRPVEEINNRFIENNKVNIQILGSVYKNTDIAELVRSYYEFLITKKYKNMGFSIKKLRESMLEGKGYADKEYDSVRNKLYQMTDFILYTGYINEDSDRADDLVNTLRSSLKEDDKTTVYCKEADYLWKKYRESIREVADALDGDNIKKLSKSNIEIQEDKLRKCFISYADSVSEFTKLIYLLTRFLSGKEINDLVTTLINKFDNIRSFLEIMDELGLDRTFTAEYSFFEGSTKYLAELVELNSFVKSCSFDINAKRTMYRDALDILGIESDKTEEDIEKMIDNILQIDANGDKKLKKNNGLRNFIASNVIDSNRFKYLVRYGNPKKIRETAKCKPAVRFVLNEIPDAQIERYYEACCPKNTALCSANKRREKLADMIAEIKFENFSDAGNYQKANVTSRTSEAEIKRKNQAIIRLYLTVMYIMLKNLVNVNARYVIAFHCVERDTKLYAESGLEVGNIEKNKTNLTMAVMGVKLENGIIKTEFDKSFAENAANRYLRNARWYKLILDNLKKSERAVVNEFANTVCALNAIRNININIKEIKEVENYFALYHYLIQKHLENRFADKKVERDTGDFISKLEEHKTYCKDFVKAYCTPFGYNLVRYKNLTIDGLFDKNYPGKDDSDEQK
Experiment: crRNA (strand 1, pre-loaded); Mg2+; 40 mM Tris-HCl pH 7.5, 150 mM NaCl, 6 mM MgCl2, 1 mM DTT, 0.1% Tween-20, 0.2 mg/ml BSA; 25 C; 10 min per concentration, then washed
Conditions: tags: His6-TwinStrep-SUMO cleaved; N-terminal SNAP kept (SNAP-Surface 488); label: 3' end held by stalled T7 RNA polymerase
Field: numeric (nM). Do not append units.

Kindly note the recorded Kd for target 1 insG 3' of 9,insU 3' of 5 (mixed) RNA 1: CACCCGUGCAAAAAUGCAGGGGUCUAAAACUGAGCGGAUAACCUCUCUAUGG RNA 2: GGGAAUGGAUCCACAUCUACGAAUUCGUACCAUAGAGAGGUUAGUCCGUCUCACCGAGAUCGGAAGAGCACACGU , which is 14.4

GET /value?item= target 1 A1G,C2A (mixed) RNA 1: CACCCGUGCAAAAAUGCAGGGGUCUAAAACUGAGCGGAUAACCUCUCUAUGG RNA 2: GGGAAUGGAUCCACAUCUACGAAUUCGUACCAUAGAGAGGUUAUCCGCUAGCCGAGAUCGGAAGAGCACACGU &field=Kd returns 5.2

# credit: paper PMC10786891
